Test system: GAL4RXR + VP16CfEcR
Assay: Transactivation of reporter gene through switch 1.3 in 3T3 cells
Conditions: GAL4MmRXRDEF/VP16CfEcRCDEF (switch 1.3), 1.0 μM ligand
Reported Mean Fold Induction at 1.0 μM Concentration values follow for various molecules
Kindly provide the numeric value in fold only, without the unit symbol.

Endpoint output: Mean Fold Induction at 1.0 μM Concentration of CC(C)CC[C@@H](O)[C@](C)(O)[C@H]1CC[C@@]2(O)C3=CC(=O)[C@@H]4C[C@@H](O)[C@@H](O)C[C@]4(C)[C@H]3CC[C@]12C [Ponasterone A, reference compound] . Value?
1.0

Endpoint output: Mean Fold Induction at 1.0 μM Concentration of `Cc1cc(C)cc(C(=O)N(NC(=O)c2ccc3c(c2C)OCCO3)C(C)(C)C)c1` . Value?
54

Endpoint output: Mean Fold Induction at 1.0 μM Concentration of `CCc1c(OC)cccc1C(=O)NN(C(=O)c1cc(C)cc(C)c1)C(C)(C)C` . Value?
71

Endpoint output: Mean Fold Induction at 1.0 μM Concentration of CC(C)CC[C@@H](O)[C@](C)(O)[C@H]1CC[C@@]2(O)C3=CC(=O)[C@]4(O)C[C@@H](O)[C@@H](O)C[C@]4(C)[C@H]3[C@H](O)C[C@]12C [Muristerone A, reference compound] . Value?
1.0
